# Test system: Saccharomyces cerevisiae BY4741 SeMeCo community
# ASSAY EXPLANATION: mean cell size (pixel area) (pixels); higher = larger cells
# EXPERIMENTAL CONTEXT: 10 µM; 24 h; SM minimal medium
Where a name gives a salt, the structure may show the parent alone.
Listing of recorded mean cell size by entry.

Take a look at these entries with their results.
[
  {
    "MOLECULE": "CC(C)=CCOc1c2occc2cc2ccc(=O)oc12 [Imperatorin]",
    "MEASUREMENT TARGET": "Saccharomyces cerevisiae BY4741 SeMeCo community",
    "REPORTED MEASUREMENT": 12.6
  },
  {
    "MOLECULE": "COc1ccc2[nH]cc(CCN)c2c1 [5-Methoxytryptamine]",
    "MEASUREMENT TARGET": "Saccharomyces cerevisiae BY4741 SeMeCo community",
    "REPORTED MEASUREMENT": 12.2
  },
  {
    "MOLECULE": "C[N+]1(C)[C@@H]2C[C@@H](OC(=O)[C@H](CO)c3ccccc3)C[C@H]1[C@@H]1O[C@@H]12 [Methscopolamine]",
    "MEASUREMENT TARGET": "Saccharomyces cerevisiae BY4741 SeMeCo community",
    "REPORTED MEASUREMENT": 12.5
  }
]

Enter reported mean cell size observed with Saccharomyces cerevisiae BY4741 SeMeCo community for COc1ccc(C(CN(C)C)C2(O)CCCCC2)cc1 (configuration not stated) [Venlafaxine HCl] 12.3

Hi! What's the reported mean cell size for C=CN1CCCC1=O.II [Povidone iodine] on Saccharomyces cerevisiae BY4741 SeMeCo community? 12.5

Lab note: need mean cell size with Saccharomyces cerevisiae BY4741 SeMeCo community for entry C=CCN1C[C@H](C(=O)N(CCCN(C)C)C(=O)NCC)C[C@@H]2c3cccc4[nH]cc(c34)C[C@H]21 [Cabergoline] , please look it up. 12.2

# returns recorded mean cell size (system: Saccharomyces cerevisiae BY4741 SeMeCo community) for CN1c2ccccc2C(NCCCCCCC(=O)O)c2ccc(Cl)cc2S1(=O)=O (configuration not stated) [Tianeptine sodium] 12.6

* * *

# Tested on: Saccharomyces cerevisiae BY4741 SeMeCo community
# ASSAY EXPLANATION: z-score of subpopulation abundance vs DMSO median, subpopulation auxotrophic for HLM; higher = larger share of this subpopulation than in DMSO controls
# EXPERIMENTAL CONTEXT: 10 µM; 24 h; SM minimal medium; subpopulation (auxotrophy): HLM
READOUT LABEL: z-score of subpopulation abundance
Form: value (number only, do not type unit).

[
  {
    "COMPOUND": "CCN(C)C(=O)Oc1cccc([C@H](C)N(C)C)c1 [Rivastigmine]",
    "MEASUREMENT TARGET": "Saccharomyces cerevisiae BY4741 SeMeCo community",
    "REPORTED MEASUREMENT": -0.03
  },
  {
    "COMPOUND": "CC(C)=CCOc1c2occc2cc2ccc(=O)oc12",
    "MEASUREMENT TARGET": "Saccharomyces cerevisiae BY4741 SeMeCo community",
    "REPORTED MEASUREMENT": 1.2
  },
  {
    "COMPOUND": "CCOC(=O)Nc1ccc(NCc2ccc(F)cc2)cc1N [Retigabine 2HCl]",
    "MEASUREMENT TARGET": "Saccharomyces cerevisiae BY4741 SeMeCo community",
    "REPORTED MEASUREMENT": -0.02
  },
  {
    "COMPOUND": "NC(=O)CN1CCCC1=O",
    "MEASUREMENT TARGET": "Saccharomyces cerevisiae BY4741 SeMeCo community",
    "REPORTED MEASUREMENT": 1.38
  },
  {
    "COMPOUND": "Nc1ccncc1",
    "MEASUREMENT TARGET": "Saccharomyces cerevisiae BY4741 SeMeCo community",
    "REPORTED MEASUREMENT": -0.2
  }
]

GET /values?readout=z-score of subpopulation abundance&item= Cc1cc(O)ccc1Cl -0.58

Record request: z-score of subpopulation abundance value, item C[C@@H]1CC[C@H]2[C@@H](C)C(=O)O[C@@H]3O[C@@]4(C)CC[C@@H]1[C@]32OO4 -0.69
